These data points were gathered from patent US11053218B2.

# measuredOn: IKZF2 (Homo sapiens, UniProt Q96SW2+Q9UKS7)
# Sequence (Q9UKS7 whole entry): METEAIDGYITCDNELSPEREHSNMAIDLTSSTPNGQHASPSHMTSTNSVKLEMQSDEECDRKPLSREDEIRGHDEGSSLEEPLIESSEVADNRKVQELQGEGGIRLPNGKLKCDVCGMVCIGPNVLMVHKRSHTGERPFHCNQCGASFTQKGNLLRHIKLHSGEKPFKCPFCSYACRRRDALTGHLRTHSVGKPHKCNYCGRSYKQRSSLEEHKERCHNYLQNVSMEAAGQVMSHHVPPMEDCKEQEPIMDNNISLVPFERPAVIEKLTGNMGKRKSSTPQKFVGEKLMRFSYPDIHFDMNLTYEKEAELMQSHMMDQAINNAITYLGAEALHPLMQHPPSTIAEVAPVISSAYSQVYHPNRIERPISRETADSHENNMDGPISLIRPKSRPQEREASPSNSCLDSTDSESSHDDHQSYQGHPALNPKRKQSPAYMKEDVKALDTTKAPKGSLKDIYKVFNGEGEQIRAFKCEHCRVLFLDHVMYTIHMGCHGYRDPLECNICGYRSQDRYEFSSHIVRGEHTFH
# Sequence (Q96SW2 whole entry): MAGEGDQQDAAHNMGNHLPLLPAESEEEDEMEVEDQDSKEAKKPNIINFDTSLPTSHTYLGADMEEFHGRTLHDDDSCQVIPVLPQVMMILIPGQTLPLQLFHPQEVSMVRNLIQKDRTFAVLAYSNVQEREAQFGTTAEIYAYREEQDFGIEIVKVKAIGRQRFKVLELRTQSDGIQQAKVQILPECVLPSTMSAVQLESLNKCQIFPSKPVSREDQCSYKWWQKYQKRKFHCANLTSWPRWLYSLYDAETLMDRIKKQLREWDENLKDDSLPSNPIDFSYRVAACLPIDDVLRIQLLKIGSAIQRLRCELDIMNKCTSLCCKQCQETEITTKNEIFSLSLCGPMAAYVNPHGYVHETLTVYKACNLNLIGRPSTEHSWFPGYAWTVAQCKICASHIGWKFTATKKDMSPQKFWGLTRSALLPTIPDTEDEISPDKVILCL
# Sequence (Q16531 whole entry partner): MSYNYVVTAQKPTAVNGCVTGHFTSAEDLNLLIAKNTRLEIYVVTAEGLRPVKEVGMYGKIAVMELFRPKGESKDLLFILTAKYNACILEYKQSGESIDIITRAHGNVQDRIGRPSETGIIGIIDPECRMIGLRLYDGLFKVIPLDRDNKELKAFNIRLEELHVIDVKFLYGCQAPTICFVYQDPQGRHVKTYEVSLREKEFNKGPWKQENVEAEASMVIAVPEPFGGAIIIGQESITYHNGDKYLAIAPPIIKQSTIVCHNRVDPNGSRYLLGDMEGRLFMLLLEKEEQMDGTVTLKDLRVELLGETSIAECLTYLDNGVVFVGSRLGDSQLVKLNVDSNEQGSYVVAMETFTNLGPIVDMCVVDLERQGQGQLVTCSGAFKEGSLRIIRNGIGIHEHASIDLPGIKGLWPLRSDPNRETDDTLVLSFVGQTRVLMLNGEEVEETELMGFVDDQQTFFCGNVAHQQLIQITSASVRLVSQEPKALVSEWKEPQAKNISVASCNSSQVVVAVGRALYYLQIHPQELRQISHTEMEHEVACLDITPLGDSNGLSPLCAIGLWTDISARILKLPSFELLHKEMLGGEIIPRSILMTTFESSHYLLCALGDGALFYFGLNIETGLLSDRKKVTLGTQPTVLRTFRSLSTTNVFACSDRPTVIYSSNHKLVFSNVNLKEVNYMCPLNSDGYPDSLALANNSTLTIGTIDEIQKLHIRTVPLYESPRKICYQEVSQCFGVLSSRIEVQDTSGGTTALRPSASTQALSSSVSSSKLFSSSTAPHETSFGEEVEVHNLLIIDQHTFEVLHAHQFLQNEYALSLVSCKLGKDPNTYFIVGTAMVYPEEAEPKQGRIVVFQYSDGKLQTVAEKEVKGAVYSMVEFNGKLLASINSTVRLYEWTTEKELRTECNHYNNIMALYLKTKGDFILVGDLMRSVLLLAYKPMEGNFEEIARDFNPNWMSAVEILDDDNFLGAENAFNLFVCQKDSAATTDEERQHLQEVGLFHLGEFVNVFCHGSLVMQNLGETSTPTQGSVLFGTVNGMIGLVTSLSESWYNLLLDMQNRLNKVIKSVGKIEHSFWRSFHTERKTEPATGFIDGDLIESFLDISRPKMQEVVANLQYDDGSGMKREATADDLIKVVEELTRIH
# protocolText: Prolabel quantification of IKZF2 protein levels in 293GT cells
# Assay type: cell-based
# experimentalContext: 24 h, 10 μM, 24 h, 293GT cells; read-out: IKZF2 % protein reduction at 10 μM, 24 h
# Procedure: The Prolabel system from DiscoverX was used to develop high-throughput and quantitative assays to measure changes in IKZF1, IKZF2 and GSPT1 protein levels in response to compounds. […] The complementary fragment of beta-galactosidase (from DiscoverX), is added to the prolabel tag to form an active beta galactosidase enzyme whose activity can be precisely measured. In this way, the levels of a fusion protein with the prolabel tag can be quantified in cell lysates. […]
reportedProperty: inhibition at 10 µM (%)

1. NC(=O)c1cccc(CN2CCC(c3ccc4c(c3)CN(C3CCC(=O)NC3=O)C4=O)CC2)c1 (stereo not drawn) [Compound I-139] : 70
2. Cc1cc2nc(CN3CCC(c4ccc5c(c4)CN(C4CCC(=O)NC4=O)C5=O)CC3)cc(O)n2n1 (stereo not drawn) [Compound I-208] : 60
3. O=C1CCC(N2Cc3cc(C4CCN(Cc5cc(F)ccc5F)CC4)ccc3C2=O)C(=O)N1 (stereo not drawn) [Compound I-29] : 70

---

# measuredOn: IKZF2 (Homo sapiens, UniProt Q96SW2+Q9UKS7)
# protocolText: Prolabel quantification of IKZF2 protein levels in 293GT cells
# Assay type: cell-based
# experimentalContext: 24 h, 10 μM, 24 h, 293GT cells; read-out: IKZF2 % protein reduction at 10 μM, 24 h
reportedProperty: inhibition at 10 µM (%)

1. O=C1CCC(N2Cc3cc(C4CCN(Cc5cccc(C(F)F)c5)CC4)ccc3C2=O)C(=O)N1 (stereo not drawn) : 70
2. O=C1CCC(N2Cc3cc(C4C[C@H]5CC[C@@H](C4)N5Cc4ccccc4)ccc3C2=O)C(=O)N1 (stereo partly drawn) : 70
3. COC1CCN(c2ccc(CN3CCC(c4ccc5c(c4)CN(C4CCC(=O)NC4=O)C5=O)CC3)cc2)CC1 (stereo not drawn) : 60
4. O=C1CCC(N2Cc3cc(C4CCN(CCc5ccccc5)CC4)ccc3C2=O)C(=O)N1 (stereo not drawn) : 65
5. Cc1ccc2c(CN3CCC(c4ccc5c(c4)CN(C4CCC(=O)NC4=O)C5=O)CC3)c[nH]c2c1 (stereo not drawn) : 80
6. O=C1CCC(N2Cc3cc(C4CCN(Cc5c(F)cccc5F)CC4)ccc3C2=O)C(=O)N1 (stereo not drawn) : 60

---

# measuredOn: IKZF2 (Homo sapiens, UniProt Q96SW2+Q9UKS7)
# protocolText: Prolabel quantification of IKZF2 protein levels in 293GT cells
# Format: cell-based
# experimentalContext: 24 h, 10 μM, 24 h, 293GT cells; read-out: IKZF2 % protein reduction at 10 μM, 24 h
reportedProperty: inhibition at 10 µM (%)

1. O=C1CCC(N2Cc3cc(C4CCN(Cc5cc(C(F)(F)F)cc(C(F)(F)F)c5)CC4)ccc3C2=O)C(=O)N1 (stereo not drawn) [Compound I-215] : 50
2. O=C1CCC(N2Cc3cc(C4CCN(Cc5cccc(Cl)c5)CC4)ccc3C2=O)C(=O)N1 (stereo not drawn) [Compound I-16] : 70
3. O=C1CCC(N2Cc3cc(C4CCN(Cc5ccccn5)CC4)ccc3C2=O)C(=O)N1 (stereo not drawn) [Compound I-58] : 60
4. O=C1CCC(N2Cc3cc(C4CCN(Cc5cc[nH]n5)CC4)ccc3C2=O)C(=O)N1 (stereo not drawn) [Compound I-118] : 55
5. O=C1CCC(N2Cc3cc(C4CCN(Cc5c[nH]nc5-c5cccnc5)CC4)ccc3C2=O)C(=O)N1 (stereo not drawn) [Compound I-151] : 60
6. Cc1ccccc1CN1CCC(c2ccc3c(c2)CN(C2CCC(=O)NC2=O)C3=O)CC1 (stereo not drawn) [Compound I-157] : 55
7. O=C1CCC(N2Cc3cc(C4CCN(Cc5cscn5)CC4)ccc3C2=O)C(=O)N1 (stereo not drawn) [Compound I-238] : 60
8. Cc1ccc(CN2CCC(c3ccc4c(c3)CN(C3CCC(=O)NC3=O)C4=O)CC2)c(C)c1 (stereo not drawn) [Compound I-42] : 60
9. O=C1CCC(N2Cc3cc(C4CCN(Cc5cc[nH]c5)CC4)ccc3C2=O)C(=O)N1 (stereo not drawn) [Compound I-119] : 65
10. CCC(C)(C)c1ccc(CN2CCC(c3ccc4c(c3)CN(C3CCC(=O)NC3=O)C4=O)CC2)cc1 (stereo not drawn) [Compound I-89] : 70
11. Cc1nc2sccn2c1CN1CCC(c2ccc3c(c2)CN(C2CCC(=O)NC2=O)C3=O)CC1 (stereo not drawn) [Compound I-125] : 60
12. O=C1CCC(N2Cc3cc(C4CCN(Cc5cnc(Cl)s5)CC4)ccc3C2=O)C(=O)N1 (stereo not drawn) [Compound I-10] : 60
